Recorded values, source PubChem BioAssay (NCI).

System: SK-MEL-28 melanoma
Test: NCI tumour cell line growth inhibition, 48 h; in the data active = GI50 below about 0.43 µM; inactive = the rest
Labels: active, inactive

* CCn1c(-c2nonc2N)nc2ccncc21 | inactive
* C/C1=C\CC[C@@](C)(O)[C@@H]2C[C@H](CC/C(C)=C/CC1)C1(CC1)C(=O)O2 | inactive
* [2H]c1nc(=Nc2cc(NC(=O)C=C)c(N(C)CCN(C)C)cc2OC)[nH]c(-c2cn(C([2H])([2H])[2H])c3ccccc23)c1[2H] | inactive
* CCN(CC)c1ccc(/C=C/C2=[N+](C)c3ccccc3C2(C)C)c(C)c1 | active
* Fc1ccc2nc(-c3cc(-c4ccc5c(c4)OCO5)n[nH]3)[nH]c2c1 | inactive
* CSc1ccc(N(C)c2nc(C)nc3c2CCC3)cc1 | inactive
* CCCCCCCCCCCCCC[n+]1cccc(C(N)=O)c1 | inactive
* c1cnn2ncc(-c3ccnc(Nc4ccc5c(c4)OCCO5)n3)c2c1 | active

###

System: HOP-92 NSCLC
Assay: NCI tumour cell line growth inhibition, 48 h
VALUE KIND: GI50

- CCCCCCCCCCCCCC[n+]1cccc(C(N)=O)c1: 657 nM
- O=C1/C(=C/c2ccc([N+](=O)[O-])cc2)COc2ccc(O)cc21: 38600 nM
- OCc1ccc(N2CCOCC2)cc1Cl: 34600 nM
- O=C(/C=C/c1cccc(O)c1)c1cccc(-n2cc(-c3ccc4ccccc4c3)[nH]c2=O)c1: 518 nM
- CCNCCNc1cc(-c2ccc(C#N)cc2)c(C#N)c2nc3ccccc3n12: 2210 nM
- COc1cccc(COc2cc(-n3cnc4ccccc43)sc2C(N)=O)c1: > 5900 nM
- O=C(c1cccs1)C1NO[N+]([O-])=C1c1cccs1 (configuration not stated): 1650 nM

###

Tested on: SK-OV-3 ovarian
Experiment: NCI tumour cell line growth inhibition, 48 h
Listing: TGI of selected compounds
VALUE KIND: TGI

• COc1cc(CNc2nc3ccc(C(F)(F)F)cc3nc2-c2ccccc2)cc(OC)c1OC = > 100 µM
• O=C1c2ccccc2-c2c1c1c(NCCCO)nc3ccccc3c1n2Cc1ccccc1 = 40.4 µM
• CCOC(=O)NC(Nc1c(F)c(F)c(F)c(F)c1F)(C(F)(F)F)C(F)(F)F = > 100 µM
• COc1cc(/C=C2\CCC(C)/C(=C\c3cc(OC)c(OC)c(OC)c3)C2=O)cc(OC)c1OC (stereo not drawn) = 62 µM
• C/C(=C\CO)CC/C=C(\C)CNc1ccc([N+](=O)[O-])cc1 = > 100 µM
• CC(=O)Oc1c(C)c(C)c2c(c1C)CCC(C)(CC(=O)OCCCCCCCCCCC[P+](c1ccccc1)(c1ccccc1)c1ccccc1)O2 (stereo not drawn) = 0.932 µM
• c1ccc([P+](CCCCCCCC[P+](c2ccccc2)(c2ccccc2)c2ccccc2)(c2ccccc2)c2ccccc2)cc1 = > 100 µM
• CON(C)C(=O)C1CCCO1 (stereo not drawn) = > 100 µM
• Cc1cc(C)nc(NS(=O)(=O)c2ccc(NC(=O)c3cccc4c(NNc5ccc(S(=O)(=O)N=C(N)N)cc5)c5ccccc5nc34)cc2)n1 = > 50 µM
• C[C@H]1[C@H](C)CC[C@]2(C(=O)OC3OC(CO)C(O)C(O)C3O)CC[C@]3(C)C(=CC[C@@H]4[C@@]5(C)C[C@H]6OC(=O)c7cc(O)c(O)c(O)c7-c7c(cc(O)c(O)c7O)C(=O)O[C@@H]6C(CO)(CO)[C@@H]5CC[C@]43C)[C@H]12 (stereo partly drawn) = > 100 µM
• CCOP(=O)(OCC)OC1CC(n2cc(C)c(=O)n(C)c2=O)OC1CO[Si](C)(C)C(C)(C)C (stereo not drawn) = > 100 µM
• Cc1cccc(C)c1N1C(=O)C(=O)C(c2nc3ccccc3s2)C(=Nc2cccc3c(=O)[nH][nH]c(=O)c23)C1=O (stereo not drawn) = > 100 µM
• O=C1/C(=C/c2cccc([N+](=O)[O-])c2)Sc2scc(-c3ccc([N+](=O)[O-])cc3)[n+]21 = 90.5 µM
• Nc1ccc(-c2nn3c(COc4ccc(Cl)cc4)nnc3s2)cc1 = > 100 µM
• c1ccc2[nH]c(CNc3ccc(C4C[Se]N=N4)cc3)nc2c1 (stereo not drawn) = > 100 µM
• CCn1c(-c2nonc2N)nc2ccncc21 = > 25 µM
• Cc1cccc(N=Nc2ccc(N=Nc3c(O)ccc4ccccc34)cc2C)c1 = 92.4 µM
• CN(C)C(=S)Nc1nnc(Nc2ccccc2)s1 = > 100 µM
